System: c-Myc/c-Max (Homo sapiens, UniProt P01106)
Sequence (P01106 whole entry): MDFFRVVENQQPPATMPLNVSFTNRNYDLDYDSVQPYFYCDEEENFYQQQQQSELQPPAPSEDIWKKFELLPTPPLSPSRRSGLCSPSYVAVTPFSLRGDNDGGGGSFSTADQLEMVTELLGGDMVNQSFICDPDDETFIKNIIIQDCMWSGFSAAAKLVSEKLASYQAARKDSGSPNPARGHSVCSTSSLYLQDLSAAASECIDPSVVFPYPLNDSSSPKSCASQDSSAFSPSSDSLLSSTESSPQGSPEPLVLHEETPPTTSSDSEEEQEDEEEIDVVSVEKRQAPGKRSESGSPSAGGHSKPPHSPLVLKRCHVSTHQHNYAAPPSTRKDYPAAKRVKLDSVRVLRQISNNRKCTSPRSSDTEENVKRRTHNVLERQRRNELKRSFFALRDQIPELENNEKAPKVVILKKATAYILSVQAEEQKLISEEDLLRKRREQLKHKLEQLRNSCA
Sequence (P61244 whole entry, further chain): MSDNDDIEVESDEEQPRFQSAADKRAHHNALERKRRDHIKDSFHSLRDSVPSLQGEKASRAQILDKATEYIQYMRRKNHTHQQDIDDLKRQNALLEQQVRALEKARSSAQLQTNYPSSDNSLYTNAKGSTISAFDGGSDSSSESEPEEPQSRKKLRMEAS
Test Method Notes: Inhibition of Nanoluc-tagged c-Myc/Halo-tagged MAX (unknown origin) interaction expressed in HEK293T cells assessed as degradation measured after 4 to 6 hrs by NanoBRET assay
Type: cell-based
Measured Property: EC50 (µM)
Could you give me the number in µM? Just the number is fine.

Complete the entry with EC50 for O=C(NC(NC(=S)Nc1ccc(I)cc1)C(Cl)(Cl)Cl)c1cccc(I)c1 (stereo unspecified) 29.1
